# Tested on: male Wistar rats
# MEASUREMENT PROTOCOL: Anticonflict action, NaCl-Lick conflict method
# Assay type: in vivo
# EXPERIMENTAL PARAMETERS: Rattus norvegicus, po, 1 hour before the test; number of licks in 5 minutes of 2% saline; rats deprived of water for 48 hours; read-out: Minimum effective dosage
Recorded minimal effective dose for the following compounds

Below: 3 compounds and their reported minimal effective dose.
O=C1c2ccccc2OC=C(Cl)N1CCCCN1CC=C(c2ccccn2)CC1 30 mg/kg
CCC1=COc2ccccc2C(=O)N1CCCCN1CCN(c2ccccn2)CC1 30 mg/kg
O=C1c2ccccc2OC=CN1CCCCN1CCN(c2ccccn2)CC1 30 mg/kg

Inquiry: State the recorded minimal effective dose for this entry: COc1ccc2c(c1)OC=CN(CCCCN1CCN(c3ncccn3)CC1)C2=O
Reply text: 10 mg/kg
